Would you kindly list ApoE3 Levels in Cell Media, Average of Three Tests for each of these compounds?
# Tested on: apoE3
# ASSAY NAME: ELISA of apoE3 levels in conditioned media of compound-treated mouse cortical astrocyte cells
# Type: cell-based
# CONDITION DESCRIPTION: 10 μM compound, 24 hours, normalized to cell protein, relative to DMSO treated cells

Specify measured ApoE3 Levels in Cell Media, Average of Three Tests for CC(C)CNC(c1ccccc1)(c1ccccc1)c1ccc2ccccc2c1 [Triarylmethyl Amine Compound No. 43, reference compound] .
82.46 % of the DMSO control

Specify measured ApoE3 Levels in Cell Media, Average of Three Tests for "COc1cccc(NC(=O)c2ccc3ccccc3c2)c1" .
84.98 % of the DMSO control

Specify measured ApoE3 Levels in Cell Media, Average of Three Tests for "c1ccc2cc(CN3CCOCC3)ccc2c1" .
104.8487 % of the DMSO control

Specify measured ApoE3 Levels in Cell Media, Average of Three Tests for "COc1ccc(NC(=O)c2ccc3ccccc3c2)cc1" .
104.5892 % of the DMSO control

Specify measured ApoE3 Levels in Cell Media, Average of Three Tests for CCC(C)NS(=O)(=O)c1ccc2ccccc2c1 (stereo not shown) .
102.6197 % of the DMSO control

Specify measured ApoE3 Levels in Cell Media, Average of Three Tests for "O=S(=O)(Nc1ccc(Br)cc1)c1ccc2ccccc2c1" .
109.1222 % of the DMSO control

Specify measured ApoE3 Levels in Cell Media, Average of Three Tests for "O=S(=O)(NCc1ccccc1)c1ccc(-c2ccccc2)cc1" .
99.36 % of the DMSO control

Specify measured ApoE3 Levels in Cell Media, Average of Three Tests for "CCCCN(CCCC)Cc1ccc2ccccc2c1" .
74.779 % of the DMSO control

Specify measured ApoE3 Levels in Cell Media, Average of Three Tests for "CC(C)CNC(=O)c1ccc2ccccc2c1" .
129.8502 % of the DMSO control

Specify measured ApoE3 Levels in Cell Media, Average of Three Tests for CC(NS(=O)(=O)c1ccc(-c2ccccc2)cc1)c1ccccc1 (stereo not shown) .
88.63 % of the DMSO control

Specify measured ApoE3 Levels in Cell Media, Average of Three Tests for "c1ccc2cc(CN3CCCCC3)ccc2c1" .
80.31 % of the DMSO control

Specify measured ApoE3 Levels in Cell Media, Average of Three Tests for CCC(C)NS(=O)(=O)c1ccc(-c2ccccc2)cc1 (stereo not shown) .
86.84 % of the DMSO control

Specify measured ApoE3 Levels in Cell Media, Average of Three Tests for c1ccc(C(c2ccccc2)(c2ccc3ccccc3c2)N2CCOCC2)cc1 [Triarylmethyl Amine Compound No. 38, reference compound] .
79.07 % of the DMSO control

Specify measured ApoE3 Levels in Cell Media, Average of Three Tests for "CC(C)CNS(=O)(=O)c1ccc2ccccc2c1" .
106.8342 % of the DMSO control

Specify measured ApoE3 Levels in Cell Media, Average of Three Tests for "O=S(=O)(NC1CCCCC1)c1ccc(-c2ccccc2)cc1" .
89.73 % of the DMSO control

Specify measured ApoE3 Levels in Cell Media, Average of Three Tests for "O=S(=O)(c1ccc(-c2ccccc2)cc1)N1CCOCC1" .
84.75 % of the DMSO control

Specify measured ApoE3 Levels in Cell Media, Average of Three Tests for "O=S(=O)(c1ccc2ccccc2c1)N1CCCCC1" .
86.86 % of the DMSO control

Specify measured ApoE3 Levels in Cell Media, Average of Three Tests for "O=S(=O)(c1cccc2ccccc12)N1CCCC1" .
98.83 % of the DMSO control

Specify measured ApoE3 Levels in Cell Media, Average of Three Tests for "O=S(=O)(Nc1ccccc1)c1ccc2ccccc2c1" .
97.14 % of the DMSO control

Specify measured ApoE3 Levels in Cell Media, Average of Three Tests for "CC(C)CNS(=O)(=O)c1ccc(-c2ccccc2)cc1" .
73.18 % of the DMSO control

Specify measured ApoE3 Levels in Cell Media, Average of Three Tests for "O=S(=O)(c1cccc2ccccc12)N1CCCCC1" .
92.0952 % of the DMSO control

Specify measured ApoE3 Levels in Cell Media, Average of Three Tests for "CCN(CC)Cc1ccc2ccccc2c1" .
90.9673 % of the DMSO control

Specify measured ApoE3 Levels in Cell Media, Average of Three Tests for "CCCCN(CCCC)S(=O)(=O)c1ccc2ccccc2c1" .
83.97 % of the DMSO control

Specify measured ApoE3 Levels in Cell Media, Average of Three Tests for "O=S(=O)(NCc1ccccc1)c1cccc2ccccc12" .
88.78 % of the DMSO control

Specify measured ApoE3 Levels in Cell Media, Average of Three Tests for "O=C(Nc1ccc(Br)cc1)c1ccc2ccccc2c1" .
96.05 % of the DMSO control

Specify measured ApoE3 Levels in Cell Media, Average of Three Tests for "O=S(=O)(NC1CCCCC1)c1cccc2ccccc12" .
95.1 % of the DMSO control

Specify measured ApoE3 Levels in Cell Media, Average of Three Tests for CC(NS(=O)(=O)c1ccc2ccccc2c1)c1ccccc1 (stereo not shown) .
85.9 % of the DMSO control

Specify measured ApoE3 Levels in Cell Media, Average of Three Tests for "CC(C)N(C(C)C)S(=O)(=O)c1ccc2ccccc2c1" .
89.39 % of the DMSO control

Specify measured ApoE3 Levels in Cell Media, Average of Three Tests for "O=C(c1ccc2ccccc2c1)N1CCCCC1" .
115.1327 % of the DMSO control

Specify measured ApoE3 Levels in Cell Media, Average of Three Tests for CCC(C)NC(=O)c1ccc2ccccc2c1 (stereo not shown) .
100.678 % of the DMSO control

Specify measured ApoE3 Levels in Cell Media, Average of Three Tests for CCCCN(CCCC)S(=O)(=O)c1cccc2ccccc12 [Compound 127, naphthalene-1-sulfonic acid dibutylamide] .
75.73 % of the DMSO control

Specify measured ApoE3 Levels in Cell Media, Average of Three Tests for "CC(C)CNS(=O)(=O)c1cccc2ccccc12" .
113.6663 % of the DMSO control

Specify measured ApoE3 Levels in Cell Media, Average of Three Tests for "O=C(c1ccc2ccccc2c1)N1CCCC1" .
104.6561 % of the DMSO control

Specify measured ApoE3 Levels in Cell Media, Average of Three Tests for "O=S(=O)(c1ccc2ccccc2c1)N1CCOCC1" .
96.13 % of the DMSO control

Specify measured ApoE3 Levels in Cell Media, Average of Three Tests for "O=S(=O)(c1ccc2ccccc2c1)N1CCCC1" .
118.6531 % of the DMSO control

Specify measured ApoE3 Levels in Cell Media, Average of Three Tests for "CCN(CC)S(=O)(=O)c1ccc2ccccc2c1" .
81.14 % of the DMSO control

Specify measured ApoE3 Levels in Cell Media, Average of Three Tests for "O=C(Nc1ccccc1)c1ccc2ccccc2c1" .
76.25 % of the DMSO control

Specify measured ApoE3 Levels in Cell Media, Average of Three Tests for "O=C(c1ccc2ccccc2c1)N1CCOCC1" .
98.59 % of the DMSO control

Specify measured ApoE3 Levels in Cell Media, Average of Three Tests for "CCN(CC)S(=O)(=O)c1cccc2ccccc12" .
89.15 % of the DMSO control

Specify measured ApoE3 Levels in Cell Media, Average of Three Tests for CCC(C)NS(=O)(=O)c1cccc2ccccc12 (stereo not shown) .
88.28 % of the DMSO control

* * *

# System: AbcA1
# ASSAY NAME: SDS-PAGE/Western blot of AbcA1 expression in E3 astrocyte cells
# Assay type: cell-based, mouse
# CONDITION DESCRIPTION: 10 μM, 24 hrs, Western blot, FIGS. 6 and 7
RECORDED METRIC: AbcA1 expression compared to the DMSO control

# count of solved cases: 5
CC(C)CNS(=O)(=O)c1ccc(-c2ccccc2)cc1; decrease
O=S(=O)(Nc1ccc(Br)cc1)c1ccc2ccccc2c1; increase
CCN(CC)S(=O)(=O)c1ccc2ccccc2c1; decrease
O=C(Nc1ccccc1)c1ccc2ccccc2c1; decrease
O=S(=O)(c1ccc(-c2ccccc2)cc1)N1CCOCC1; increase

Now, please, on to the next molecule.
Specify measured AbcA1 expression compared to the DMSO control for "O=S(=O)(NCc1ccccc1)c1cccc2ccccc12" .
increase
